- target: T1, human wild-type TREM2 (membrane bound, isoform 1) stably overexpressed on HEK293 Flp-In cells (human)
- T1 construct: also called wt TREM2; human full-length TREM2
- T1 chain: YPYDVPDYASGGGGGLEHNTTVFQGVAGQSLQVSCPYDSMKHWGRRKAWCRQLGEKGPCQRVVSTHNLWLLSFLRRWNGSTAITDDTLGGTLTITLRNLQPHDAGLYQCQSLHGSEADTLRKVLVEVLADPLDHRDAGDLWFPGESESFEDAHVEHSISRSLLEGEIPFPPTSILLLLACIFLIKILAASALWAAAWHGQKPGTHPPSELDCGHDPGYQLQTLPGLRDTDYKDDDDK
- experiment: immunofluorescence on live HEK293 Flp-In cells expressing human full-length TREM2 against empty-vector cells; hybridoma supernatant diluted 1:2
recorded-endpoint: binding result

| binder | result |
| --- | --- |
| antibody clone 21A3 (antibody, V domains shown, Rat monoclonal IgG from a hybridoma) VH: EVKLLESGGGLVQPGGSMRLSCAASGFTFTDFYMNWIRQPAGKAPEWLGLIRNKANGYTTQYNPSVKGRFTISRDNTQNMLYLQMNTLRGEDTATYYCARIGINNGGSLDYWGQGVMVTVSS VL: DILINQSPASLTVSAGEKVTMSCKSSQSLLYSEKNQDYLAWYQQKPGQSPKLLMYGASYRHTGVPDRFTGSGSGTDFTLTISSVQAEDLADYYCEQTYSYPYTFGAGTKLELK | binds |
| antibody clone 10C3 (antibody, V domains shown, Rat monoclonal IgG from a hybridoma) VH: EVKLLESGGGLVQPGGSMRLSCAASGFTFTDFYMNWIRQPAGETPEWLGLIRNKTKGYTTEYNPSVKGRFTISRDNTQNMLYLQMNSLRPEDTATYYCARIGTNNGGSLDYWGQGVMVTVSS VL: DILIIQSPASLTVSAGARVTMSCKSSQSLLYSENNQDYLAWYQQKPGQFPKLLIYGASNRHTGVPDRFTGSGSGTDFTLTISSVQAEDLADYYCEQTYSYPYTFGAGTKLELK | binds |
| antibody clone 18F9 (antibody, V domains shown, Rat monoclonal IgG from a hybridoma) VH: EVKLLESGGGLVQPGGSMRLSCVVSGFTFTDFYMNWIRQAAGKAPEWLGLIRNKVNGYRTEYNPSVKGRFTISRDNIQNMLYLQMNTLRAEDTATYYCARIGINNGGSLDYWGQGVMVTVSS VL: DILINQSPASLTVSAGEKVTMSCKSSQSLLYSENNQDYLAWYQQKPGQFPKLLIYGASNRHTGVPDRFTGSGSGTDFTLTISSVQAEDLADYYCEQTYSYPYTFGAGTKLELK | binds |
